Taken from patent US20040186273A1.

experimental_target: radiolabelled octapeptide repeat *acetyl[…]amide (SEQ ID NO:2) (Homo sapiens, UniProt P04156)
condition_context: pH 7.4
experimental_endpoint: % unbound [14C] (%)

[[record]]
substance = "QLGHQW [Peptide 97]"
experimental_endpoint = "% unbound [14C]"
unit_descriptor = "%"
result_number = 85

[[record]]
substance = "YVFNWY [Peptide 87]"
experimental_endpoint = "% unbound [14C]"
unit_descriptor = "%"
result_number = 45

[[record]]
substance = "LAWFWR [Peptide 88]"
experimental_endpoint = "% unbound [14C]"
unit_descriptor = "%"
result_number = 90

[[record]]
substance = "WFPHFF [Peptide 102]"
experimental_endpoint = "% unbound [14C]"
unit_descriptor = "%"
result_number = 64

[[record]]
substance = "TGIPII [Peptide 118]"
experimental_endpoint = "% unbound [14C]"
unit_descriptor = "%"
result_number = 88

[[record]]
substance = "YWFIYI [Peptide 117]"
experimental_endpoint = "% unbound [14C]"
unit_descriptor = "%"
result_number = 83

[[record]]
substance = "LRVIIS [Peptide 96]"
experimental_endpoint = "% unbound [14C]"
unit_descriptor = "%"
result_number = 90

[[record]]
substance = "LWWLFV [Peptide 111]"
experimental_endpoint = "% unbound [14C]"
unit_descriptor = "%"
result_number = 85

[[record]]
substance = "WLYWIP [Peptide 85]"
experimental_endpoint = "% unbound [14C]"
unit_descriptor = "%"
result_number = 90

[[record]]
substance = "IQIWIF [Peptide 110]"
experimental_endpoint = "% unbound [14C]"
unit_descriptor = "%"
result_number = 85

[[record]]
substance = "GFFFWW [Peptide 89]"
experimental_endpoint = "% unbound [14C]"
unit_descriptor = "%"
result_number = 23

[[record]]
substance = "WLVWIA [Peptide 116]"
experimental_endpoint = "% unbound [14C]"
unit_descriptor = "%"
result_number = 85

[[record]]
substance = "VFEYIK [Peptide 115]"
experimental_endpoint = "% unbound [14C]"
unit_descriptor = "%"
result_number = 87

[[record]]
substance = "LLLVIA [Peptide 94]"
experimental_endpoint = "% unbound [14C]"
unit_descriptor = "%"
result_number = 83

[[record]]
substance = "RWIISL [Peptide 113]"
experimental_endpoint = "% unbound [14C]"
unit_descriptor = "%"
result_number = 89

[[record]]
substance = "HKEQGA [Peptide 119]"
experimental_endpoint = "% unbound [14C]"
unit_descriptor = "%"
result_number = 91


----------
experimental_target: radiolabelled octapeptide repeat *acetyl[…]amide (SEQ ID NO:2) (Homo sapiens)
condition_context: pH 7.4
experimental_endpoint: % unbound [14C] (%)

[[record]]
substance = "LLIWIP [Peptide 84]"
experimental_target = "radiolabelled octapeptide repeat *acetyl[…]amide (SEQ ID NO:2) (Homo sapiens)"
result_number = 89

[[record]]
substance = "LEIRLA [Peptide 93]"
experimental_target = "radiolabelled octapeptide repeat *acetyl[…]amide (SEQ ID NO:2) (Homo sapiens)"
result_number = 96

[[record]]
substance = "WEFYWF [Peptide 86]"
experimental_target = "radiolabelled octapeptide repeat *acetyl[…]amide (SEQ ID NO:2) (Homo sapiens)"
result_number = 76

[[record]]
substance = "FYVFTA [90/98]"
experimental_target = "radiolabelled octapeptide repeat *acetyl[…]amide (SEQ ID NO:2) (Homo sapiens)"
result_number = 82

[[record]]
substance = "SLEEYV [Peptide 95]"
experimental_target = "radiolabelled octapeptide repeat *acetyl[…]amide (SEQ ID NO:2) (Homo sapiens)"
result_number = 89

[[record]]
substance = "SNYGPY [Peptide 99]"
experimental_target = "radiolabelled octapeptide repeat *acetyl[…]amide (SEQ ID NO:2) (Homo sapiens)"
result_number = 79

[[record]]
substance = "QWWFII [Peptide 114]"
experimental_target = "radiolabelled octapeptide repeat *acetyl[…]amide (SEQ ID NO:2) (Homo sapiens)"
result_number = 87

[[record]]
substance = "YFIWWE [Peptide 91]"
experimental_target = "radiolabelled octapeptide repeat *acetyl[…]amide (SEQ ID NO:2) (Homo sapiens)"
result_number = 58

[[record]]
substance = "IFFWIK [Peptide 112]"
experimental_target = "radiolabelled octapeptide repeat *acetyl[…]amide (SEQ ID NO:2) (Homo sapiens)"
result_number = 77

[[record]]
substance = "SFPYYY [Peptide 92]"
experimental_target = "radiolabelled octapeptide repeat *acetyl[…]amide (SEQ ID NO:2) (Homo sapiens)"
result_number = 90

[[record]]
substance = "WIPPYN [Peptide 101]"
experimental_target = "radiolabelled octapeptide repeat *acetyl[…]amide (SEQ ID NO:2) (Homo sapiens)"
result_number = 84

